Test system: Tdp1-over CL187 cells
Assay: Cell viability of Tdp1-overexpressing cells
Format: cell-based, Human
Settings: Homo sapiens, 48 h, Tdp1-over CL187, 48 h
experimental readout: pIC50
pIC50 here is simply -log10 of the concentration when that concentration is written in mol/L.

Hello, I am looking for reported pIC50 with Tdp1-over CL187 cells for COc1cc(/C=C/c2ccc(O)cc2)cc(OC)c1 [PTE, 3,5-dimethoxy-4′-hydroxy-trans-stilbene] . Could you help? 4.69

###

System: HCT-116
Assay: Cell viability assay (CCK-8)
Type: cell-based, Human
Conditions: Homo sapiens, HCT-116, 48 h
experimental readout: IC50 (µM)
# output: bare number, implied unit µM

Form field: reported IC50 of COc1cc(/C=C/c2ccc(O)cc2)cc(OC)c1 [PTE, 3,5-dimethoxy-4′-hydroxy-trans-stilbene] 15.4

###

Test system: HCT-116
Test: Cell viability assay (CCK-8)
Type: cell-based, Human
Details: HCT-116, 72 h; listed as Pterostilbene
experimental readout: pIC50
pIC50 here is simply -log10 of the concentration when that concentration is written in mol/L.

Form field: reported pIC50 of COc1cc(/C=C/c2ccc(O)cc2)cc(OC)c1 [PTE, 3,5-dimethoxy-4′-hydroxy-trans-stilbene] 4.67

###

System: COLO205
Experiment: Cell viability assay (CCK-8)
Type: cell-based, Human
Conditions: Homo sapiens, COLO 205, 24 h, COLO205, 24 h
experimental readout: pIC50
pIC50 here is simply -log10 of the concentration when that concentration is written in mol/L.

Form field: reported pIC50 of COc1cc(/C=C/c2ccc(O)cc2)cc(OC)c1 [PTE, 3,5-dimethoxy-4′-hydroxy-trans-stilbene] 4.35

###

Test system: Tdp1-over CL187 cells
Experiment: Cell viability of Tdp1-overexpressing cells
Format: cell-based, Human
Conditions: Homo sapiens, 24 h, Tdp1-over CL187, 24 h
experimental readout: pIC50
pIC50 here is simply -log10 of the concentration when that concentration is written in mol/L.

Form field: reported pIC50 of COc1cc(/C=C/c2ccc(O)cc2)cc(OC)c1 [PTE, 3,5-dimethoxy-4′-hydroxy-trans-stilbene] 4.20

###

Test system: COLO205
Test: Cell viability assay (CCK-8)
Format: cell-based, Human
Settings: Homo sapiens, COLO 205, 48 h, COLO205, 48 h
experimental readout: IC50
Please provide the amount together with its unit, number first.

Form field: reported IC50 of COc1cc(/C=C/c2ccc(O)cc2)cc(OC)c1 [PTE, 3,5-dimethoxy-4′-hydroxy-trans-stilbene] 24.5 µM

###

System: COLO205
Assay: Cell viability assay (CCK-8)
Type: cell-based, Human
Conditions: COLO205, 72 h; listed as Pterostilbene
experimental readout: IC50 (µM)
# output: bare number, implied unit µM

Form field: reported IC50 of COc1cc(/C=C/c2ccc(O)cc2)cc(OC)c1 [PTE, 3,5-dimethoxy-4′-hydroxy-trans-stilbene] 13.6

###

Tested on: HCT-8
Test: Cell viability assay (CCK-8)
Type: cell-based, Human
Details: HCT-8, 72 h; listed as Pterostilbene
experimental readout: IC50 (µM)
# output: bare number, implied unit µM

Form field: reported IC50 of COc1cc(/C=C/c2ccc(O)cc2)cc(OC)c1 [PTE, 3,5-dimethoxy-4′-hydroxy-trans-stilbene] 25

###

Test system: siRNA-Tdp1 CL187 cells
Experiment: Cell viability of Tdp1-silenced cells
Format: cell-based, Human
Conditions: Homo sapiens, 72 h, siRNA-Tdp1 CL187, 72 h
experimental readout: IC50 (µM)
# output: bare number, implied unit µM

Form field: reported IC50 of COc1cc(/C=C/c2ccc(O)cc2)cc(OC)c1 [PTE, 3,5-dimethoxy-4′-hydroxy-trans-stilbene] 18.4
